target: human KDR protein in HEK-293 cells (Homo sapiens (Human)); experiment: KDR Cell Assay (phospho-KDR in HEK-293 cells expressing inducible KDR); assay type: cell-based; details: pKDR Cell HEK 10% FBS IC50, HEK-293 cells expressing inducible KDR, VEGF stimulated
Sequence (P35968 20-1356): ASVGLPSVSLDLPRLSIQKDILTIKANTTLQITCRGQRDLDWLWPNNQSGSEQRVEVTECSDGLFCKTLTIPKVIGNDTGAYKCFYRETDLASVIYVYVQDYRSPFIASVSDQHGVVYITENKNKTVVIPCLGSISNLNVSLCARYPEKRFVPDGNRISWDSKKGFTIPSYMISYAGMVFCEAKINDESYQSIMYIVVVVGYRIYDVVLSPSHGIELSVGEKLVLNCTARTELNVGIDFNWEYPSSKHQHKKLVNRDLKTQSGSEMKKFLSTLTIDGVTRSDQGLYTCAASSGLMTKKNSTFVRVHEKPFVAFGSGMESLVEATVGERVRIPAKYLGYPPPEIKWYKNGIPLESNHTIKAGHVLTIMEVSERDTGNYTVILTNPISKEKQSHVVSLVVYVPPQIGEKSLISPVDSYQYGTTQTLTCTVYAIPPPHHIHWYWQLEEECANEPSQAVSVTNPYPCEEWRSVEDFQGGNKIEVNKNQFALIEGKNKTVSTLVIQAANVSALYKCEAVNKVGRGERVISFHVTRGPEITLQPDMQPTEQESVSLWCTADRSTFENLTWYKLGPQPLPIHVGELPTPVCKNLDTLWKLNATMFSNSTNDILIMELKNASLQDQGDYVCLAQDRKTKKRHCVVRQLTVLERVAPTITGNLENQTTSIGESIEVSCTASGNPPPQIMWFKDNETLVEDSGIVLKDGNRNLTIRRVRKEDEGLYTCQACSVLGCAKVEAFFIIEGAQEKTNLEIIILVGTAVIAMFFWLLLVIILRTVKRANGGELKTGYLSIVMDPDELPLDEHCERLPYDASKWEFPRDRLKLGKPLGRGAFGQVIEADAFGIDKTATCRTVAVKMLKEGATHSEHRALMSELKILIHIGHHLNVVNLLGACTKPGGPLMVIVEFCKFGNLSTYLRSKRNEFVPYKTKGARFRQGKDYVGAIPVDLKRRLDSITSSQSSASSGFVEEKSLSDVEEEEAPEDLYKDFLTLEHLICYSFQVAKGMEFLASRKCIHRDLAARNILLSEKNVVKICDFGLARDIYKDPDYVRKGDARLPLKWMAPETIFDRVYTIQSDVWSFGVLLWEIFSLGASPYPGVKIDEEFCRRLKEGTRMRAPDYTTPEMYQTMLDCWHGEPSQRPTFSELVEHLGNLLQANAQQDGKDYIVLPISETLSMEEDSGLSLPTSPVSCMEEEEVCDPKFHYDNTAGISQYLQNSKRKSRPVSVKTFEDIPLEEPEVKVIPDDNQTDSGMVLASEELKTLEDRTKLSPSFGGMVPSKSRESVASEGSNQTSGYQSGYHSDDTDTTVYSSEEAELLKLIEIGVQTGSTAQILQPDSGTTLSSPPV
Observed property: IC50 (nM)

# Compound, Tested system, Units, Reported measurement
rows = [
    ("Cn1cc(-c2cc(-c3ccc(N4CCC5(CC4)CC(NC(=O)OC(C)(C)C)C5)nc3)c3c(C#N)cnn3c2)cn1 [Example 516]", "human KDR protein in HEK-293 cells (Homo sapiens (Human))", "nM", 173),
    ("Cn1cc(CN2CCN(c3ccc(-c4cc(-c5cnn(C)c5)cn5ncc(C#N)c45)cn3)CC2)cn1 [Example 448]", "human KDR protein in HEK-293 cells (Homo sapiens (Human))", "nM", 1720),
    ("CCC1(C(=O)NC(C)C)CCN(c2ccc(-c3cc(-c4cnn(C)c4C)cn4ncc(C#N)c34)cn2)CC1 [Example 597]", "human KDR protein in HEK-293 cells (Homo sapiens (Human))", "nM", 830),
]

1 = Cn1cnc(CN2CCN(c3ccc(-c4cc(-c5cnn(C)c5)cn5ncc(C#N)c45)cn3)CC2)c1 [Example 449]
2 = Cn1cc(-c2cc(-c3ccc(N4CCN(C(=O)N5CCN6CCCC6C5)CC4)nc3)c3c(C#N)cnn3c2)cn1 (stereo not shown) [Example 381]
Param pair: 1 , 2 . Output: the one whose IC50 is numerically greater. Please identify the chosen entry by its label. 1

P = Cc1cncc(CN2CCN(c3ccc(-c4cc(-c5cnn(C)c5)cn5ncc(C#N)c45)cn3)CC2)n1 [Example 431]
Q = Cn1cc(-c2cc(-c3ccc(N4CCN(C(=O)N5CC[C@H](c6ccccc6)C5)CC4)nc3)c3c(C#N)cnn3c2)cn1 [Example 378]
Please indicate which item has the smaller measured IC50: P versus Q Please identify the chosen entry by its label. Q
(Q: 467 nM, P: 1500 nM)
